Where do these numbers come from? They come from the supplement of paper PMC7057948.

Tested on: SauR/P_H16_RS13695 sulfonatoacetate biosensor (pEH157)
Assay: relative induction of RFP reporter vs primary effector; higher = stronger activation
Details: inducer concentration 5 mM; 6 h; Cupriavidus necator H16; minimal medium + 0.4% gluconate
Result type: relative induction of RFP reporter

// solved cases for relative induction of RFP reporter follow
1) NCCC(=O)O [β-alanine]: -0.0116%
2) N[C@@H](Cc1ccccc1)C(=O)O [L-phenylalanine]: -0.0265%
3) O=C(O)C(=O)c1ccccc1 [phenylglyoxylate]: 0.0193%
4) O=C(O)CCO [3-hydroxypropanoate]: -0.00696%
5) O=C(O)c1ccccc1 [benzoate]: -0.0427%

Identify measured relative induction of RFP reporter associated with CC(=O)C(C)O (stereo not drawn) [acetoin]
-0.0229%

Identify measured relative induction of RFP reporter associated with O=C(O)C(O)C(O)C(=O)O (stereo not drawn) [tartrate]
0.033%

Identify measured relative induction of RFP reporter associated with O=CO [formate]
0.0555%

----------
Tested on: AcoR/P_H16_RS19445 acetoin biosensor (pEH052)
Test: relative induction of RFP reporter vs primary effector; higher = stronger activation
Conditions: inducer concentration 5 mM; 6 h; Cupriavidus necator H16; minimal medium + 0.4% gluconate
This listing pairs compounds with measured relative induction of RFP reporter.
Entry rule: numbers only, all in %.

// solved cases for relative induction of RFP reporter follow
1. O=C(O)C(=O)c1ccccc1 [phenylglyoxylate]: -2.12
2. N[C@@H](Cc1ccccc1)C(=O)O [L-phenylalanine]: -1.77
3. O=C(O)C(O)C(O)C(=O)O (stereo not given) [tartrate]: 0.491
4. O=C(O)c1ccc(O)c(O)c1 [3,4-dihydroxybenzoate]: -0.382
5. Nc1ccccc1C(=O)C[C@H](N)C(=O)O [L-kynurenine]: -1.84
6. N[C@@H](Cc1ccc(O)cc1)C(=O)O [L-tyrosine]: -2.55
7. NCCC(=O)O [β-alanine]: -2.32
8. O=C(O)C1CCCCC1 [cyclohexane-1-carboxylate]: 2.02
9. O=C(O)c1ccccc1 [benzoate]: 4.78

Now, please, on to the next compound.
Identify measured relative induction of RFP reporter associated with O=c1[nH]c(=O)c2nc[nH]c2[nH]1 [xanthine]
-1.36

----------
Test system: KynR/P_H16_RS14030 L-kynurenine biosensor (pEH136)
Assay: relative induction of RFP reporter vs primary effector; higher = stronger activation
Conditions: inducer concentration 5 mM; 6 h; Cupriavidus necator H16; minimal medium + 0.4% gluconate
Result type: relative induction of RFP reporter (%)
Entry rule: numbers only, all in %.

1. O=CO [formate]: 0.482
2. O=C(O)c1ccc(O)c(O)c1 [3,4-dihydroxybenzoate]: 0.138
3. O=C(O)c1ccccc1 [benzoate]: -0.112
4. O=C(O)c1ccccc1O [salicylate]: -0.248
5. CC(=O)C(C)O (stereo not drawn) [acetoin]: 0.0145
6. N[C@@H](Cc1ccccc1)C(=O)O [L-phenylalanine]: 1.98
7. C=CC(=O)O [acrylate]: 0.406
8. O=C(O)CCO [3-hydroxypropanoate]: -0.395
9. NCCC(=O)O [β-alanine]: -0.589
10. O=C(O)C(O)C(O)C(=O)O (stereo not drawn) [tartrate]: 0.0585

Identify measured relative induction of RFP reporter associated with OC1OC[C@H](O)[C@H](O)[C@H]1O (mixture of isomers) [L-arabinose]
0.181

Identify measured relative induction of RFP reporter associated with N[C@@H](Cc1ccc(O)cc1)C(=O)O [L-tyrosine]
0.164

Identify measured relative induction of RFP reporter associated with O=C(O)C1CCCCC1 [cyclohexane-1-carboxylate]
0.977

----------
System: FdsR/P_H16_RS03165 formate biosensor (pEH134)
Assay: relative induction of RFP reporter vs primary effector; higher = stronger activation
Conditions: inducer concentration 5 mM; 6 h; Cupriavidus necator H16; minimal medium + 0.4% gluconate
Result type: relative induction of RFP reporter (%)
Entry rule: numbers only, all in %.

// solved cases for relative induction of RFP reporter follow
1. C=CC(=O)O [acrylate]: -7.94
2. O=c1[nH]c(=O)c2nc[nH]c2[nH]1: -4.71

Identify measured relative induction of RFP reporter associated with O=C(O)C1CCCCC1 [cyclohexane-1-carboxylate]
-8.69

Identify measured relative induction of RFP reporter associated with O=C(O)c1ccccc1O [salicylate]
-11.3

Identify measured relative induction of RFP reporter associated with O=C(O)c1ccc(O)c(O)c1 [3,4-dihydroxybenzoate]
8.18

----------
Tested on: PhhR/P_H16_RS18365 L-phenylalanine biosensor (pEH137)
Experiment: relative induction of RFP reporter vs primary effector (background-corrected); higher = stronger activation of the biosensor
Settings: inducer concentration 5 mM; 6 h; Cupriavidus necator H16; minimal medium + 0.4% gluconate
This listing pairs compounds with measured relative induction of RFP reporter.
Entry rule: numbers only, all in %.

1) Oc1ccc(O)cc1 [hydroquinone]: 2.24
2) O=C(O)/C=C/C(=O)O [fumarate]: 0.00492

Identify measured relative induction of RFP reporter associated with O=C(O)[C@@H](O)[C@@H](O)[C@H](O)[C@@H](O)C(=O)O [glucarate]
-0.08

Identify measured relative induction of RFP reporter associated with Oc1cccc(O)c1 [resorcinol]
0.365

Identify measured relative induction of RFP reporter associated with N[C@@H](Cc1c[nH]c2ccccc12)C(=O)O [L-tryptophan]
1.21

----------
Test system: heterologous inducible system pEH086 (rhamnose/acrylate/cumate/itaconate set)
Assay: relative induction of RFP reporter vs primary effector (background-corrected); higher = stronger activation of the biosensor
Details: inducer concentration 5 mM; 6 h; Cupriavidus necator H16; minimal medium + 0.4% gluconate
Result type: relative induction of RFP reporter (%)
Entry rule: numbers only, all in %.

// solved cases for relative induction of RFP reporter follow
1. O=C(O)C(O)C(=O)O: 0.0674
2. Oc1ccc(O)cc1 [hydroquinone]: 0.735
3. Oc1ccccc1: -0.575
4. O=c1[nH]cnc2nc[nH]c12: 0.0665
5. CC(=O)CCC(=O)O: -0.139

Now, please, on to the next compound.
Please report relative induction of RFP reporter with heterologous inducible system pEH086 (rhamnose/acrylate/cumate/itaconate set) for item O=C(O)C1=C[C@@H](O)[C@@H](O)[C@H](O)C1 [shikimate] .
0.188

----------
System: TtdR/P_H16_RS10665 tartrate biosensor (pEH083)
Assay: relative induction of RFP reporter vs primary effector; higher = stronger activation
Details: inducer concentration 5 mM; 6 h; Cupriavidus necator H16; minimal medium + 0.4% gluconate
Result type: relative induction of RFP reporter (%)
Entry rule: numbers only, all in %.

// solved cases for relative induction of RFP reporter follow
1) O=C(O)CCO [3-hydroxypropanoate]: -0.346
2) NCCC(=O)O [β-alanine]: 0.268
3) O=C(O)C1CCCCC1 [cyclohexane-1-carboxylate]: 2.19
4) O=C(O)c1ccccc1 [benzoate]: -0.474

Now, please, on to the next molecule.
Identify measured relative induction of RFP reporter associated with C=C(CC(=O)O)C(=O)O [itaconate]
-0.0311

----------
Tested on: OapR/P_H16_RS01330 beta-alanine biosensor (pEH147)
Experiment: relative induction of RFP reporter vs primary effector (background-corrected); higher = stronger activation of the biosensor
Conditions: inducer concentration 5 mM; 6 h; Cupriavidus necator H16; minimal medium + 0.4% gluconate
Result type: relative induction of RFP reporter (%)
Entry rule: numbers only, all in %.

// solved cases for relative induction of RFP reporter follow
1) OC[C@@H](O)[C@@H](O)[C@H](O)[C@H](O)CO [D-mannitol]: -0.205
2) O=C(O)C1=C[C@@H](O)[C@@H](O)[C@H](O)C1 [shikimate]: 0.246

Now, please, on to the next compound.
Please report relative induction of RFP reporter with OapR/P_H16_RS01330 beta-alanine biosensor (pEH147) for item O=C(O)c1cc(=O)c2ccccc2[nH]1 [kynurenate] .
-1.34

----------
System: HpdA/P_H16_RS24175 L-tyrosine biosensor (pEH158)
Assay: relative induction of RFP reporter vs primary effector (background-corrected); higher = stronger activation of the biosensor
Conditions: inducer concentration 5 mM; 6 h; Cupriavidus necator H16; minimal medium + 0.4% gluconate
Result type: relative induction of RFP reporter (%)
Entry rule: numbers only, all in %.

1) O=C(O)/C=C/C(=O)O [fumarate]: -0.0945

Identify measured relative induction of RFP reporter associated with C[C@@H](O)C(=O)O [D-lactate]
-0.202

Identify measured relative induction of RFP reporter associated with N[C@@H](CC(=O)O)C(=O)O [L-aspartate]
-0.107

Identify measured relative induction of RFP reporter associated with O=C(O)C[C@H](O)C(=O)O [L-malate]
-0.0258

----------
Tested on: BadR/P_H16_RS27200 cyclohexanecarboxylate biosensor (pEH159)
Assay: relative induction of RFP reporter vs primary effector (background-corrected); higher = stronger activation of the biosensor
Settings: inducer concentration 5 mM; 6 h; Cupriavidus necator H16; minimal medium + 0.4% gluconate
Result type: relative induction of RFP reporter (%)
Entry rule: numbers only, all in %.

// solved cases for relative induction of RFP reporter follow
1) CC(N)CC(=O)O (configuration not stated) [3-aminobutanoate]: -0.361
2) O=C(O)CNC(=O)c1ccccc1 [N-benzoylglycine]: -0.675
3) NCCc1ccc(O)c(O)c1 [dopamine]: 1.95
4) O=C(O)c1c(O)cccc1O [2,6-dihydroxybenzoate]: 0.241

Identify measured relative induction of RFP reporter associated with NC(C(=O)O)c1ccccc1 (racemic) [D,L-2-phenylglycine]
-0.673

Identify measured relative induction of RFP reporter associated with C[C@H](O)C(=O)O [L-lactate]
0.636
